Biological target: human PRMT6 (Homo sapiens)
Construct: Flag-PRMT6-His; made in house; host or cells: HEK 293F cells (BacMam baculovirus)
Sequence (Q96LA8 with tags, fused parts or gaps): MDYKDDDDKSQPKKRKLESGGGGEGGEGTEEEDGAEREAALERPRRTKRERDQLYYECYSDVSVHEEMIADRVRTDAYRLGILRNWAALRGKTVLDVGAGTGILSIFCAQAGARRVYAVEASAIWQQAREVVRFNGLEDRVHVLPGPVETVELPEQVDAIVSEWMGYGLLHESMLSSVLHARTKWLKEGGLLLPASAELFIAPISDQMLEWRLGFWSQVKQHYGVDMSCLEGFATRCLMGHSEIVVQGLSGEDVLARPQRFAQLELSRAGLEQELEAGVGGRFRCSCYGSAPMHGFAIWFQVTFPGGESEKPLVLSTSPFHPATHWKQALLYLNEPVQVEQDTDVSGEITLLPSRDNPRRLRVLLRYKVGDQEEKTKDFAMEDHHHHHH
Experiment: PRMT6 Biochemical Assay (3H-SAM Flashplate, peptide substrate)
Conditions: Biochemical IC50 PRMT6, single experiment or average of multiple experiments
// classify: if (IC50 < 30 nM) yes (1) else no (0)

{"COMPOUND": "CNCCN(C)Cc1c[nH]nc1-c1ccc(Oc2ncccn2)cc1 [Compound 302]", "LABEL CLASS": "no (0)"}
{"COMPOUND": "CNCCN(C)Cc1c[nH]nc1-c1ccc(Oc2ccccc2)cc1 [Compound 37]", "LABEL CLASS": "yes (1)"}
{"COMPOUND": "CNCCN(C)Cc1c[nH]nc1-c1cccc([N+](=O)[O-])c1 [Compound 21]", "LABEL CLASS": "yes (1)"}
{"COMPOUND": "CNCCN(C)Cc1c[nH]nc1-c1ccc(Oc2ccccc2)c(F)c1 [Compound 297]", "LABEL CLASS": "yes (1)"}
{"COMPOUND": "CNCCN(C)Cc1c[nH]nc1-c1ccc(OCC2CCOC2)cc1 (centres unmarked) [Compound 285]", "LABEL CLASS": "no (0)"}

====

Target: human PRMT1 (Homo sapiens, UniProt Q99873)
Construct: GST-tagged PRMT1; made in house; host or cells: High Five insect cells (baculovirus)
Sequence (Q99873 with tags, fused parts or gaps): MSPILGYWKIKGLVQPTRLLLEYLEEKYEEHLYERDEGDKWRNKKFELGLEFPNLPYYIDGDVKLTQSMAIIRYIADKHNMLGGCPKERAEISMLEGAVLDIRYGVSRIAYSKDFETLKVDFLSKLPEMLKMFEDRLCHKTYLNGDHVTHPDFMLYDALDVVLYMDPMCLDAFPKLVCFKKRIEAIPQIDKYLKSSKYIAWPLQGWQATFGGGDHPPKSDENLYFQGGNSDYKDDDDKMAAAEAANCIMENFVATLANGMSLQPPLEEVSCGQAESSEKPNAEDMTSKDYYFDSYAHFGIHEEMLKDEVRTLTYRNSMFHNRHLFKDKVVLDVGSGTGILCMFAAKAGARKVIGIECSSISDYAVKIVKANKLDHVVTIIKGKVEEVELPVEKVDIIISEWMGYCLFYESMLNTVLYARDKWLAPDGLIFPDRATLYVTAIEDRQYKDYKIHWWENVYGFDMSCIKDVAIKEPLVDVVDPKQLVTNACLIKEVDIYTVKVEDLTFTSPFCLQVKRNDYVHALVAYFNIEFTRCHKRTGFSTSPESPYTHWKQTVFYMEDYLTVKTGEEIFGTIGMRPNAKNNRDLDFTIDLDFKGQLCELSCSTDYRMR
Assay: PRMT1 Biochemical Assay (3H-SAM Flashplate, peptide substrate)
Conditions: single experiment or average of multiple experiments
pIC50: −log10 of the molar value.
Listed below: pIC50 values for each entry.
OBSERVABLE: pIC50

{"COMPOUND": "COCCn1cc(CN(C)CCN)c(-c2ccc(F)cc2)n1", "TEST TARGET": "human PRMT1 (Homo sapiens, UniProt Q99873)", "OBSERVED MEASUREMENT": 5.93}
{"COMPOUND": "CN(CCN)Cc1c[nH]nc1-c1cc(F)cc(F)c1", "TEST TARGET": "human PRMT1 (Homo sapiens, UniProt Q99873)", "OBSERVED MEASUREMENT": 7.72}
{"COMPOUND": "CC(C)CC(=O)N1CCN(c2ccc(-c3n[nH]cc3CN(C)CCN)cc2)CC1", "TEST TARGET": "human PRMT1 (Homo sapiens, UniProt Q99873)", "OBSERVED MEASUREMENT": 6.19}
{"COMPOUND": "CN(CCN)Cc1c[nH]nc1-c1ccc(OC2CCOCC2)cc1", "TEST TARGET": "human PRMT1 (Homo sapiens, UniProt Q99873)", "OBSERVED MEASUREMENT": 8.08}
{"COMPOUND": "CNCCN(C)Cc1cnn(C2CCOC2)c1-c1ccc(OC(C)C)cc1 (centres unmarked)", "TEST TARGET": "human PRMT1 (Homo sapiens, UniProt Q99873)", "OBSERVED MEASUREMENT": 7.67}
{"COMPOUND": "CNCCN(C)Cc1c[nH]nc1-c1ccc(F)cc1F", "TEST TARGET": "human PRMT1 (Homo sapiens, UniProt Q99873)", "OBSERVED MEASUREMENT": 6.78}
{"COMPOUND": "CNCCN(C)Cc1n[nH]cc1-c1ccc(Oc2cccc(C(=O)NC)c2)cc1", "TEST TARGET": "human PRMT1 (Homo sapiens, UniProt Q99873)", "OBSERVED MEASUREMENT": 8.34}
{"COMPOUND": "CN(CCN)Cc1cn(C)nc1-c1ccc(F)cc1", "TEST TARGET": "human PRMT1 (Homo sapiens, UniProt Q99873)", "OBSERVED MEASUREMENT": 7.24}
{"COMPOUND": "CN(CCN)Cc1cn(CCO)nc1-c1ccc(F)cc1", "TEST TARGET": "human PRMT1 (Homo sapiens, UniProt Q99873)", "OBSERVED MEASUREMENT": 5.62}
{"COMPOUND": "CNCCN(C)Cc1c[nH]nc1-c1ccc(OC2CCC2)c(F)c1", "TEST TARGET": "human PRMT1 (Homo sapiens, UniProt Q99873)", "OBSERVED MEASUREMENT": 8.20}
{"COMPOUND": "CNCCN(C)Cc1c[nH]nc1-c1ccc(NC(C)C)cc1", "TEST TARGET": "human PRMT1 (Homo sapiens, UniProt Q99873)", "OBSERVED MEASUREMENT": 7.54}
{"COMPOUND": "CNCCN(C)Cc1c[nH]nc1-c1ccc(Oc2ccccc2)c(C#N)c1 [Compound 221]", "TEST TARGET": "human PRMT1 (Homo sapiens, UniProt Q99873)", "OBSERVED MEASUREMENT": 8.19}
{"COMPOUND": "CN(CCN)Cc1cnn(CC(O)CO)c1-c1ccc(F)cc1 (centres unmarked)", "TEST TARGET": "human PRMT1 (Homo sapiens, UniProt Q99873)", "OBSERVED MEASUREMENT": 5.83}
{"COMPOUND": "CNCCN(C)Cc1c[nH]nc1-c1ccc(OCC2CC2)cc1", "TEST TARGET": "human PRMT1 (Homo sapiens, UniProt Q99873)", "OBSERVED MEASUREMENT": 8.05}
